experimentalTarget: human TYK2 (JH2domain-pseudokinase) (Homo sapiens (Human))
Sequence (P29597 556-888): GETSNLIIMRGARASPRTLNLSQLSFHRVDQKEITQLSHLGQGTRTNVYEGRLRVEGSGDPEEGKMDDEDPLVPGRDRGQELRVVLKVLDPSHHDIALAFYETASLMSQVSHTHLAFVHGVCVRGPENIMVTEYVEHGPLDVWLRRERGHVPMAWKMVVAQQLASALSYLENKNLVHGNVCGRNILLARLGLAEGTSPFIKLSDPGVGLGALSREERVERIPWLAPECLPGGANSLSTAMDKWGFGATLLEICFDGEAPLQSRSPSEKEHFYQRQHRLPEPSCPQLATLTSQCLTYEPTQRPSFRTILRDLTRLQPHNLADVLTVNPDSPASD
assayProcedure: TYK2 JH2 Domain Binding Assay (KINOMEscan)
observable: Kd

Use the examples below as a reference point.
{"molecule": "CNc1cc(Nc2cccnc2OC2CCCCC2)nc2c(C(=O)NC3CC3)cnn12 [I-221]", "reported": "1 to 10 nM"}
{"molecule": "CNc1cc(-c2cn(C(C)C)c3ncccc23)nc2c(C(=O)N[C@@H]3CC[C@H]3O)cnn12 [I-640]", "reported": "< 0.2 nM"}
{"molecule": "CNc1cc(Nc2cccn(-c3cccc(F)c3)c2=O)nc2c(C(=O)NC[C@H](C)CO)cnn12 [I-1034]", "reported": "< 0.2 nM"}
{"molecule": "CNc1cc(Nc2cccn([C@H]3CC[C@H](OC)CC3)c2=O)nc2c(C(=O)NCC(C)CO)cnn12 (some centres unmarked) [I-613]", "reported": "< 0.2 nM"}

Query block: Consider the molecule CNc1cc(Nc2cccnc2OC2CC2)nc2c(C(=O)N[C@@H]3CC[C@@H]3O)cnn12 [I-401] . State its measured Kd.
Result block: < 0.2 nM

Query block: Consider the molecule CNC(=O)c1nscc1Nc1cc(NC)n2ncc(C(=O)N[C@@H]3C[C@@H]3F)c2n1 [I-914] . State its measured Kd.
Result block: < 0.2 nM

Query block: Consider the molecule CNc1cc(Nc2cccn(-c3cncc(C)c3)c2=O)nc2c(C(=O)NC3CCC3)cnn12 [I-303] . State its measured Kd.
Result block: < 0.2 nM

Query block: Consider the molecule CNc1cc(Nc2cccn(C3CCCCC3)c2=O)nc2c(C(=O)N[C@H]3CC[C@@H]3O)cnn12 [I-1003] . State its measured Kd.
Result block: 0.2 to 1 nM

Query block: Consider the molecule CNc1cc(Nc2cccc(C3CCCCO3)n2)nc2c(C(=O)NC3CC3)cnn12 (stereo in doubt) [I-464] . State its measured Kd.
Result block: 0.2 to 1 nM

Query block: Consider the molecule CNc1cc(Nc2cccnc2OC2CC2)nc2c(C(=O)NCC3(CO)CC3)cnn12 [I-426] . State its measured Kd.
Result block: < 0.2 nM

Query block: Consider the molecule CNc1cc(Nc2cccn([C@H]3CCC[C@H](OC)C3)c2=O)nc2c(C(=O)N[C@H]3CC[C@@H]3OC)cnn12 [I-1098] . State its measured Kd.
Result block: < 0.2 nM

Query block: Consider the molecule CNc1cc(Nc2cccn(-c3ncc(C)s3)c2=O)nc2c(C(=O)N[C@@H]3CC[C@@H]3O)cnn12 [I-1073] . State its measured Kd.
Result block: < 0.2 nM

Query block: Consider the molecule CNc1cc(Nc2cccn(-c3ccc(C4CCN(C)CC4)cc3)c2=O)nc2c(C(=O)N[C@H]3C[C@H]3F)cnn12 [I-389] . State its measured Kd.
Result block: < 0.2 nM

Query block: Consider the molecule CNc1cc(-c2cn(CCN3CCN(C)CC3)c3ncccc23)nc2c(C(=O)N[C@H]3CC[C@@H]3O)cnn12 (stereo in doubt) [I-852] . State its measured Kd.
Result block: < 0.2 nM

Query block: Consider the molecule CNc1cc(Nc2cccn(-c3ncc(OC)cc3F)c2=O)nc2c(C(=O)NC3CC3)cnn12 [I-672] . State its measured Kd.
Result block: < 0.2 nM

Query block: Consider the molecule CNc1cc(Nc2cccn([C@@H]3CCN(CCF)C3)c2=O)nc2c(C(=O)N[C@@H]3CC[C@H]3OC)cnn12 [I-1333] . State its measured Kd.
Result block: 1 to 10 nM

Query block: Consider the molecule CNc1cc(Nc2cccc(N3CCOC3=O)n2)nc2c(C(N)=O)cnn12 [I-65] . State its measured Kd.
Result block: < 0.2 nM

Query block: Consider the molecule CNc1cc(Nc2cccn(C(C)C)c2=O)nc2c(C(=O)N[C@H]3CC[C@@H]3O)cnn12 [I-982] . State its measured Kd.
Result block: 0.2 to 1 nM
